# TEST TARGET: PI3K delta (Homo sapiens (Human))
# TEST: Luciferase-coupled chemiluminescence kinase assay (KinaseGlo, ATP consumption)
pIC50: −log10 of the molar value.
OUTCOME MEASURE: pIC50

query: Form field: reported pIC50 of Cc1cccc2cc(CNC(=O)c3nccnc3N)c(N(Cc3cccnc3)Cc3cccnc3)nc12 [Compound 46]
result: 6.30 to 6.60

query: Check Cc1ccccc1-n1c(CSc2ncnc3nc[nH]c23)nc2ccsc2c1=O [Compound 163] too.
result: 5.82 to 6.30

query: Same question for Cc1cccc2cc(CNC(=O)c3nccnc3N)c(N(C)CCNC(=O)Cn3ccnn3)nc12 [Compound 51] please.
result: 6.60 to 7.30

query: Entry to check: Cc1cccc2cc(CNC(=O)c3nccnc3N)c(N(C)CCN(C)C(=O)[C@H]3CCCN3)nc12 [Compound 102]
result: 6.60 to 7.30

----------
# TEST TARGET: PI3K delta (Homo sapiens (Human))
# TEST: Luciferase-coupled chemiluminescence kinase assay (KinaseGlo, ATP consumption)
OUTCOME MEASURE: IC50

query: Please give the measured IC50 for this molecule: "Cc1cccc2cc(CNC(=O)c3nccnc3N)c(N3CCCN(C)CC3)nc12"
result: 250 to 500 nM

query: Another molecule: "Cc1cccc2cc(Cn3cnc4c(N)ncnc43)c(NC3CCOCC3)nc12"
result: 500 to 1500 nM

query: Follow-up entry: "Cc1cccc2cc(Cn3cnc4c(N)ncnc43)c(N3CCOCC3)nc12"
result: 50 to 250 nM

query: Also "Cc1cccc2cc(CNC(=O)c3nccnc3N)c(N3CCCN(Cc4cccn4C)CC3)nc12" , if possible.
result: 500 to 1500 nM

query: Consider next the molecule "Cc1cccc2cc(CNC(=O)c3nccnc3N)c(N(C)CCN(C)C(=O)[C@@H]3CCCN3C)nc12" in the same way.
result: 50 to 250 nM

query: Then what about the molecule "Cc1ccccc1-c1nc2c(C)cccc2cc1Cn1cnc2c(N)ncnc21" ?
result: 50 to 250 nM

query: And the next one, "CNCCN(C)c1nc2c(C)cccc2cc1-c1nnc(-c2nccnc2N)o1" ?
result: 500 to 1500 nM

query: Next record, please: "Cc1cccc2cc(CNC(=O)c3nccnc3N)c(N(C)CCN(C)C(=O)c3cnccn3)nc12"
result: 500 to 1500 nM

----------
Consider the following compounds; for each one, report its IC50.
# TEST TARGET: PI3K delta (Homo sapiens (Human), UniProt O00329)
# Sequence (O00329 whole entry): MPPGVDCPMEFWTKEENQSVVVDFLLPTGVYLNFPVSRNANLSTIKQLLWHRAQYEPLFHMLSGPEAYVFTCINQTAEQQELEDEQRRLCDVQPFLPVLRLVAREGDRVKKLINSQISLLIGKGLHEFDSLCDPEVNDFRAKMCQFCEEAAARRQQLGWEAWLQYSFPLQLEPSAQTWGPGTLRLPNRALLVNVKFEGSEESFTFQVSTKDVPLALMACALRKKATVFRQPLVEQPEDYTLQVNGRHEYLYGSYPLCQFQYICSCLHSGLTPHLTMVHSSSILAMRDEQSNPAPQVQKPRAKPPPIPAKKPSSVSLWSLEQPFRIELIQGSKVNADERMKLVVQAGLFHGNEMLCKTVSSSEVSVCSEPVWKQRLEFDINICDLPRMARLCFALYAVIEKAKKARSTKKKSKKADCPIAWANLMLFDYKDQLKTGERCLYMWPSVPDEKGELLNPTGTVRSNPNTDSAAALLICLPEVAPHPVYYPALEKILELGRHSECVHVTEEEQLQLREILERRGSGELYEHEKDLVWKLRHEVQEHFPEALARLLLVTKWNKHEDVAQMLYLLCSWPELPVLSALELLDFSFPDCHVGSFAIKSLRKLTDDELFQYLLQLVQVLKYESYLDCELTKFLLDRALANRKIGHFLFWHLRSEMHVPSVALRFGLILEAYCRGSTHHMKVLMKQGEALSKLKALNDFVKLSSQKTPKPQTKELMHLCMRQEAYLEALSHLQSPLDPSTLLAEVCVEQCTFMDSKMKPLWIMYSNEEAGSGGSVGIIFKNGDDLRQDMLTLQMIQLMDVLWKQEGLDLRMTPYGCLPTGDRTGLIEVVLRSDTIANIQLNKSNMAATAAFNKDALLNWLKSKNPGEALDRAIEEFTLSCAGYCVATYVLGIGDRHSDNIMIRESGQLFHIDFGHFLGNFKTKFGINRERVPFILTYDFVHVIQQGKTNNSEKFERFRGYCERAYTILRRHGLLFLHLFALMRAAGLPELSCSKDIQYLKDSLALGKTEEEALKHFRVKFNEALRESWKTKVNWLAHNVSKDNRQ
# Sequence (P27986 whole entry partner): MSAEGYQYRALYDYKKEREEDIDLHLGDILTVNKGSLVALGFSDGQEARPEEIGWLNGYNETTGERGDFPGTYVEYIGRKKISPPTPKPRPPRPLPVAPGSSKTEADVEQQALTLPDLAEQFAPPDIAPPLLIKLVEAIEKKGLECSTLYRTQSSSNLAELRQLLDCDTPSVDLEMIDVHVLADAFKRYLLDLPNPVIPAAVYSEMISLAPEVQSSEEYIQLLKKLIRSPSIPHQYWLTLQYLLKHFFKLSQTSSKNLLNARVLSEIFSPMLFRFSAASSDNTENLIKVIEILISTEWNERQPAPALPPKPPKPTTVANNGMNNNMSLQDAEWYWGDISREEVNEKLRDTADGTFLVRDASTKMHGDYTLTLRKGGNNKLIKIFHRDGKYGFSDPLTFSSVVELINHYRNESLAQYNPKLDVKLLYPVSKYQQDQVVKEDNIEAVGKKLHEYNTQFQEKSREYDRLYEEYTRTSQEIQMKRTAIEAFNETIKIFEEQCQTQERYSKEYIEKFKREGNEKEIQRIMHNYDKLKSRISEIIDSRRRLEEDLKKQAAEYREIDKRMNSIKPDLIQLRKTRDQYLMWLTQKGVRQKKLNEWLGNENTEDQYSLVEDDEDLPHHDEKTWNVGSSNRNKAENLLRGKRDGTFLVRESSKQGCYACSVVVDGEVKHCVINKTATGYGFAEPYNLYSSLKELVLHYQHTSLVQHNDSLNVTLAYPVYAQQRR
# TEST: Luciferase-coupled chemiluminescence kinase assay (KinaseGlo, ATP consumption)

query: Sample Cc1ccccc1-c1cc2c(C)cccc2nc1CNC(=O)c1nccnc1N [Compound 118] — what was its IC50?
result: 250 to 500 nM

query: Please give the result for Cc1cccc2cc(CNC(=O)c3nccnc3N)c(N3CCNCC3)nc12 [Compound 131] too.
result: 500 to 1500 nM

query: Entry Cc1cccc2cc(CNC(=O)c3nccnc3N)c(N3CCCN(C(=O)CN(C)C)CC3)nc12 [Compound 137] please
result: 250 to 500 nM

query: Lookup Cc1cccc2cc(CNc3cccc4c3OCCO4)c(-c3ccccc3Cl)nc12 [Compound 5]
result: 500 to 1500 nM

query: Same read-out for Cc1ccccc1-n1c(Cn2cnc3c(N)ncnc32)nc2ccsc2c1=O [Compound 162] ?
result: 500 to 1500 nM

query: Cc1cccc2cc(Cn3cnc4c(N)ncnc43)c(N3CCN(C)CC3)nc12 [Compound 173] ?
result: 50 to 250 nM

query: Record: Cc1cccc2cc(Cn3cnc4c(N)ncnc43)c(N(C)CC3CCCN3C)nc12 (centres unmarked) [Compound 2]
result: < 50 nM

query: Further, for CCCN1CCC[C@@H]1C(=O)N(C)CCN(C)c1nc2c(C)cccc2cc1CNC(=O)c1nccnc1N [Compound 67] ?
result: < 50 nM

The measured values listed here are drawn from patent US9670212B2.
